- study target: Carbonic anhydrase 9 (Homo sapiens, UniProt Q16790)
- assay explanation: Inhibition of recombinant human carbonic anhydrase 9 incubated for 15 mins by stopped flow CO2 hydrase assay
Consider the cut-off 6 nM. If the recorded Ki is strictly smaller, the label is MET; if not, the label is NOT MET.

| compound | label value |
| --- | --- |
| CC(C)[C@@H](C[Se]c1ccc(S(N)(=O)=O)cc1)NC(=O)OC(C)(C)C | MET |
| Cc1ccc(S(=O)(=O)N[C@H](C[Se]c2ccc(S(N)(=O)=O)cc2)Cc2ccccc2)cc1 | MET |
| Cc1ccc(S(=O)(=O)N[C@H](C[Se]c2ccc(S(N)(=O)=O)cc2)C(C)C)cc1 | NOT MET |
| C=CCOCC(O)C[Se]c1ccc(S(N)(=O)=O)cc1 (stereo not drawn) | NOT MET |
| CC(C)OCC(O)C[Se]c1ccc(S(N)(=O)=O)cc1 (stereo not drawn) | NOT MET |
| C=C(C)[C@@H]1CCC(C)(O)C([Se]c2ccc(S(N)(=O)=O)cc2)C1 (stereo partly drawn) | MET |
| NS(=O)(=O)c1ccc([Se]CC(O)COCc2ccccc2)cc1 (stereo not drawn) | NOT MET |
| CC(C)[C@H](N)C[Se]c1ccc(S(N)(=O)=O)cc1 | MET |
| N#C[Se]c1ccc(S(N)(=O)=O)cc1 | NOT MET |
| NS(=O)(=O)c1ccc([Se]C2CCCCC2O)cc1 (stereo not drawn) | NOT MET |
| NS(=O)(=O)c1ccc([Se][Se]c2ccc(S(N)(=O)=O)cc2)cc1 | MET |
| CCCCC(O)C[Se]c1ccc(S(N)(=O)=O)cc1 (stereo not drawn) | MET |
| NS(=O)(=O)c1ccc([Se]CC(O)CBr)cc1 (stereo not drawn) | NOT MET |

The measured values listed here are drawn from ChEMBL document CHEMBL4130589.
